- METHOD_SUMMARY: Phase solubility study of ilomastat with 2-hydroxypropyl-β-cyclodextrin (HPLC)
- Assay type: physicochemical
- EXPERIMENTAL_SETUP: water; read-out: aqueous solubility in water
- Description: The mixture was left to stir overnight. A flow rate of 1 mL/min was used with 0.1% trifluoroacetic acid in water and acetonitrile as eluents A and B, respectively, with a linear gradient from 80% A to 70% B in 17 minutes. The detection wavelength was 280 nm. The mixture was left to stir overnight. Benzalkonium chloride (BAC) (0.8 mg) was then added to the mixture, and the mixture was filtered (0.22 μm PES).
RECORDED_ENDPOINT: solubility (µg/mL)
Write down the numeric answer in µg/mL and omit the unit.

Tell me the measured solubility of CNC(=O)[C@H](Cc1c[nH]c2ccccc12)NC(=O)[C@@H](CC(=O)NO)CC(C)C , please. 140
